Values compiled from paper PMC6681697.

Tested on: LNCaP xenografts
Assay: Ex vivo biodistribution and blocking studies in mice bearing LNCaP xenografts
Settings: 1 h after injection, unblocked
value type: adrenal uptake (%ID/g)
Reply with just the number (in %ID/g).

Challenge: Quick check: adrenal uptake of C[N+](C)(Cc1cn(CC(=O)N[C@@H](CCC(=O)O)C(=O)NCCCC[C@H](NC(=O)[C@H](CCC(=O)O)NC(=O)Cn2cc(C[N+](C)(C)C[B-](F)(F)F)nn2)C(=O)NC[C@H]2CC[C@H](C(=O)N[C@@H](Cc3ccc4ccccc4c3)C(=O)NCCCC[C@H](NC(=O)N[C@@H](CCC(=O)O)C(=O)O)C(=O)O)CC2)nn1)C[B-](F)(F)F [^18F-8] ?
Response given: 7.72

Challenge: Quick check: adrenal uptake of C[N+](C)(Cc1cn(Cc2ccc(C(=O)NCCCC[C@H](NC(=O)N[C@@H](CCC(=O)O)C(=O)O)C(=O)O)cc2)nn1)C[B-](F)(F)F [^18F-2] ?
Response given: 4.65

====

Test system: LNCaP xenografts
Assay: Ex vivo biodistribution and blocking studies in mice bearing LNCaP xenografts
Conditions: 1 h blocked (coinjection of DCFPyL 0.5 mg)
value type: muscle uptake (%ID/g)
Reply with just the number (in %ID/g).

Challenge: Quick check: muscle uptake of C[N+](C)(Cc1cn(CC(=O)NCCOCCOCCC(=O)N[C@@H](Cc2ccc3ccccc3c2)C(=O)NCCCC[C@H](NC(=O)N[C@@H](CCC(=O)O)C(=O)O)C(=O)O)nn1)C[B-](F)(F)F [^18F-7] ?
Response given: 0.24

Challenge: Quick check: muscle uptake of C[N+](C)(Cc1ccc(C(=O)NCCCC[C@H](NC(=O)N[C@@H](CCC(=O)O)C(=O)O)C(=O)O)cc1)C[B-](F)(F)F [^18F-1] ?
Response given: 0.13

Challenge: Quick check: muscle uptake of O=C(O)CC[C@H](NC(=O)N[C@@H](CCCCNC(=O)[C@H](Cc1ccc2ccccc2c1)NC(=O)[C@H]1CC[C@H](CNC(=O)Cn2cc(C[n+]3ccc([B-](F)(F)F)cc3)nn2)CC1)C(=O)O)C(=O)O [^18F-6] ?
Response given: 0.10

====

Exercise: for every item that follows, state its recorded liver uptake.
System: LNCaP xenografts
Experiment: Ex vivo biodistribution and blocking studies in mice bearing LNCaP xenografts
Conditions: 1 h after injection, unblocked
Reply with just the number (in %ID/g).

Challenge: Quick check: liver uptake of C[N+](C)(Cc1cn(Cc2ccc(C(=O)NCCCC[C@H](NC(=O)N[C@@H](CCC(=O)O)C(=O)O)C(=O)O)cn2)nn1)C[B-](F)(F)F [^18F-3] ?
Response given: 1.17

Challenge: Quick check: liver uptake of O=C(O)CC[C@H](NC(=O)N[C@@H](CCCCNC(=O)[C@H](Cc1ccc2ccccc2c1)NC(=O)[C@H]1CC[C@H](CNC(=O)Cn2cc(C[n+]3ccc([B-](F)(F)F)cc3)nn2)CC1)C(=O)O)C(=O)O [^18F-6] ?
Response given: 0.98

Challenge: Quick check: liver uptake of C[N+](C)(Cc1cn(CC(=O)NC[C@H]2CC[C@H](C(=O)N[C@@H](Cc3ccc4ccccc4c3)C(=O)NCCCC[C@H](NC(=O)N[C@@H](CCC(=O)O)C(=O)O)C(=O)O)CC2)nn1)C[B-](F)(F)F [^18F-5] ?
Response given: 1.14

Challenge: Quick check: liver uptake of C[N+](C)(Cc1ccc(C(=O)NCCCC[C@H](NC(=O)N[C@@H](CCC(=O)O)C(=O)O)C(=O)O)cc1)C[B-](F)(F)F [^18F-1] ?
Response given: 2.90

Challenge: Quick check: liver uptake of O=C(O)CCC(NC(=O)NC(CCCCNC(=O)c1ccc([18F])nc1)C(=O)O)C(=O)O (stereo not drawn) [^18F-DCFPyL, reference compound] ?
Response given: 1.82

Challenge: Quick check: liver uptake of C[N+](C)(Cc1cn(CC(=O)NCCOCCOCCC(=O)N[C@@H](Cc2ccc3ccccc3c2)C(=O)NCCCC[C@H](NC(=O)N[C@@H](CCC(=O)O)C(=O)O)C(=O)O)nn1)C[B-](F)(F)F [^18F-7] ?
Response given: 0.83

Challenge: Quick check: liver uptake of O=C(O)CC[C@H](NC(=O)N[C@@H](CCCCNC(=O)c1ccc(Cn2cc(C[n+]3ccc([B-](F)(F)F)cc3)nn2)nc1)C(=O)O)C(=O)O [^18F-4] ?
Response given: 1.28

Challenge: Quick check: liver uptake of C[N+](C)(Cc1cn(CC(=O)N[C@@H](CCC(=O)O)C(=O)NCCCC[C@H](NC(=O)[C@H](CCC(=O)O)NC(=O)Cn2cc(C[N+](C)(C)C[B-](F)(F)F)nn2)C(=O)NC[C@H]2CC[C@H](C(=O)N[C@@H](Cc3ccc4ccccc4c3)C(=O)NCCCC[C@H](NC(=O)N[C@@H](CCC(=O)O)C(=O)O)C(=O)O)CC2)nn1)C[B-](F)(F)F [^18F-8] ?
Response given: 0.20

Challenge: Quick check: liver uptake of C[N+](C)(Cc1cn(Cc2ccc(C(=O)NCCCC[C@H](NC(=O)N[C@@H](CCC(=O)O)C(=O)O)C(=O)O)cc2)nn1)C[B-](F)(F)F [^18F-2] ?
Response given: 1.69

====

Test system: LNCaP xenografts
Experiment: Ex vivo biodistribution and blocking studies in mice bearing LNCaP xenografts
Conditions: 1 h after injection, unblocked
value type: testes uptake (%ID/g)
Reply with just the number (in %ID/g).

Challenge: Quick check: testes uptake of C[N+](C)(Cc1cn(Cc2ccc(C(=O)NCCCC[C@H](NC(=O)N[C@@H](CCC(=O)O)C(=O)O)C(=O)O)cc2)nn1)C[B-](F)(F)F [^18F-2] ?
Response given: 0.67

Challenge: Quick check: testes uptake of C[N+](C)(Cc1cn(CC(=O)NC[C@H]2CC[C@H](C(=O)N[C@@H](Cc3ccc4ccccc4c3)C(=O)NCCCC[C@H](NC(=O)N[C@@H](CCC(=O)O)C(=O)O)C(=O)O)CC2)nn1)C[B-](F)(F)F [^18F-5] ?
Response given: 0.74

Challenge: Quick check: testes uptake of C[N+](C)(Cc1cn(CC(=O)N[C@@H](CCC(=O)O)C(=O)NCCCC[C@H](NC(=O)[C@H](CCC(=O)O)NC(=O)Cn2cc(C[N+](C)(C)C[B-](F)(F)F)nn2)C(=O)NC[C@H]2CC[C@H](C(=O)N[C@@H](Cc3ccc4ccccc4c3)C(=O)NCCCC[C@H](NC(=O)N[C@@H](CCC(=O)O)C(=O)O)C(=O)O)CC2)nn1)C[B-](F)(F)F [^18F-8] ?
Response given: 0.57

Challenge: Quick check: testes uptake of O=C(O)CCC(NC(=O)NC(CCCCNC(=O)c1ccc([18F])nc1)C(=O)O)C(=O)O (stereo not drawn) [^18F-DCFPyL, reference compound] ?
Response given: 0.57

Challenge: Quick check: testes uptake of C[N+](C)(Cc1cn(Cc2ccc(C(=O)NCCCC[C@H](NC(=O)N[C@@H](CCC(=O)O)C(=O)O)C(=O)O)cn2)nn1)C[B-](F)(F)F [^18F-3] ?
Response given: 0.30

Challenge: Quick check: testes uptake of C[N+](C)(Cc1ccc(C(=O)NCCCC[C@H](NC(=O)N[C@@H](CCC(=O)O)C(=O)O)C(=O)O)cc1)C[B-](F)(F)F [^18F-1] ?
Response given: 0.62

Challenge: Quick check: testes uptake of O=C(O)CC[C@H](NC(=O)N[C@@H](CCCCNC(=O)[C@H](Cc1ccc2ccccc2c1)NC(=O)[C@H]1CC[C@H](CNC(=O)Cn2cc(C[n+]3ccc([B-](F)(F)F)cc3)nn2)CC1)C(=O)O)C(=O)O [^18F-6] ?
Response given: 0.33

Challenge: Quick check: testes uptake of O=C(O)CC[C@H](NC(=O)N[C@@H](CCCCNC(=O)c1ccc(Cn2cc(C[n+]3ccc([B-](F)(F)F)cc3)nn2)nc1)C(=O)O)C(=O)O [^18F-4] ?
Response given: 0.67

Challenge: Quick check: testes uptake of C[N+](C)(Cc1cn(CC(=O)NCCOCCOCCC(=O)N[C@@H](Cc2ccc3ccccc3c2)C(=O)NCCCC[C@H](NC(=O)N[C@@H](CCC(=O)O)C(=O)O)C(=O)O)nn1)C[B-](F)(F)F [^18F-7] ?
Response given: 0.18

====

Test system: LNCaP xenografts
Assay: Ex vivo biodistribution and blocking studies in mice bearing LNCaP xenografts
Conditions: 1 h after injection, unblocked
Exercise: for every item that follows, state its recorded adrenal uptake.
Reply with just the number (in %ID/g).

Challenge: Quick check: adrenal uptake of C[N+](C)(Cc1cn(Cc2ccc(C(=O)NCCCC[C@H](NC(=O)N[C@@H](CCC(=O)O)C(=O)O)C(=O)O)cn2)nn1)C[B-](F)(F)F [^18F-3] ?
Response given: 1.35

Challenge: Quick check: adrenal uptake of C[N+](C)(Cc1ccc(C(=O)NCCCC[C@H](NC(=O)N[C@@H](CCC(=O)O)C(=O)O)C(=O)O)cc1)C[B-](F)(F)F [^18F-1] ?
Response given: 4.77

Challenge: Quick check: adrenal uptake of C[N+](C)(Cc1cn(CC(=O)NCCOCCOCCC(=O)N[C@@H](Cc2ccc3ccccc3c2)C(=O)NCCCC[C@H](NC(=O)N[C@@H](CCC(=O)O)C(=O)O)C(=O)O)nn1)C[B-](F)(F)F [^18F-7] ?
Response given: 0.81

Challenge: Quick check: adrenal uptake of O=C(O)CC[C@H](NC(=O)N[C@@H](CCCCNC(=O)[C@H](Cc1ccc2ccccc2c1)NC(=O)[C@H]1CC[C@H](CNC(=O)Cn2cc(C[n+]3ccc([B-](F)(F)F)cc3)nn2)CC1)C(=O)O)C(=O)O [^18F-6] ?
Response given: 2.14
